# study system: T1, human CD19 on Raji cells (human, UniProt P15391 20-556)
# T1 construct: whole, on cells
# T1 sequence (looked up): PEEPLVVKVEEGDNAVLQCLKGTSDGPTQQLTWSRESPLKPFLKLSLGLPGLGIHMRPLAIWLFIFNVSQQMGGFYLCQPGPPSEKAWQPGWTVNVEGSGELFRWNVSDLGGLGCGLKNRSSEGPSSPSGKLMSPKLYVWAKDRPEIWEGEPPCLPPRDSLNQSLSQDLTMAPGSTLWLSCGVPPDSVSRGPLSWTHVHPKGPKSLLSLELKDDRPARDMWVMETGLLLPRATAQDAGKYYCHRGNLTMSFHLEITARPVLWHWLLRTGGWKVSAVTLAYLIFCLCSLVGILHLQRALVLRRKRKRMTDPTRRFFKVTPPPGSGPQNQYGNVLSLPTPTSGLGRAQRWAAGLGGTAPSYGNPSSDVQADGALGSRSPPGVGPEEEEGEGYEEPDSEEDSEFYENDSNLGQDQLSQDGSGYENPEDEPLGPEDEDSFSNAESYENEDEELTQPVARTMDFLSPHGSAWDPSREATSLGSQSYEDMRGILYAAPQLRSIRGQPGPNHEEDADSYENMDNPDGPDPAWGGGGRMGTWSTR
# test name: FACS on Raji cells
# Experimental: After the digestion was terminated, the cells were washed 2 times with a PBS buffer; and for suspension cell Raji, the supernatant of the medium was discarded by directly centrifugation, and the cell pellet was washed 2 times with PBS. […] Data analysis was performed by software (FlowJo) to obtain the mean fluorescence intensity (MFI) of the cells. […]
Would you mind telling me the reported EC50 of each entry?
Give bare numbers, in nM.

Worked cases, EC50 given:
F3.121.4-L1H1 (antibody, mouse IgG1, kappa, V domains shown, humanized antibody of F3.121.4, VL1+VH1, murine IgG1 constant regions) VH: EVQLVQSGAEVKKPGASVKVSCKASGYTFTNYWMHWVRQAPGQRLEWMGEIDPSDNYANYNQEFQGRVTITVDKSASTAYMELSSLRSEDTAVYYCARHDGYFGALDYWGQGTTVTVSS VL: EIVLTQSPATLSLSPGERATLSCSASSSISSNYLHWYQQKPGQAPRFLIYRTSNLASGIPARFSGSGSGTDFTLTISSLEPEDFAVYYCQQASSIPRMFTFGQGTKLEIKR: 0.43
F3.121.4-L2H1 (antibody, mouse IgG1, kappa, V domains shown, humanized antibody of F3.121.4, VL2+VH1, murine IgG1 constant regions) VH: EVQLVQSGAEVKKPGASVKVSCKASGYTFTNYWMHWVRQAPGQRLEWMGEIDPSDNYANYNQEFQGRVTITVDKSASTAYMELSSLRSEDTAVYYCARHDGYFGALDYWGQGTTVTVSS VL: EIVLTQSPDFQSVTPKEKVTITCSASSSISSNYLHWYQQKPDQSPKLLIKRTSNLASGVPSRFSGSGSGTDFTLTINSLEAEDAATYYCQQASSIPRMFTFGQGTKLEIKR: 0.38

Request: Any idea what its EC50 is? The binder is F3.121.4-L3H2 (antibody, mouse IgG1, kappa, V domains shown, humanized antibody of F3.121.4, VL3+VH2, murine IgG1 constant regions) VH: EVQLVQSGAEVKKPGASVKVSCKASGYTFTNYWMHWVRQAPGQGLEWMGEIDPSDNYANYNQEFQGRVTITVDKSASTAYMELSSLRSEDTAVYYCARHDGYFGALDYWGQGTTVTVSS VL: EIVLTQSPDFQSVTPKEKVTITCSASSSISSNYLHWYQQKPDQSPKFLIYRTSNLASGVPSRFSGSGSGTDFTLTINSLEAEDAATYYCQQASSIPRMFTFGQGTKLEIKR
Response: 0.42
